Recorded growth values for a group of compounds are listed next.
Test system: CAKI-1 renal
experimental.protocol: NCI-60 one-dose screen, 48 h (100 = growth as untreated, 0 = no growth, -100 = all killed)
conditions.used: 10 µM
The panel holds about 83,000 compounds, 20% with a hit somewhere; the sample as a whole holds those more often.
A number alone suffices; assume %.

O=C1c2cccc3cc([N+](=O)[O-])cc(c23)C(=O)N1CCN1CCCC1 = -14

Query: What measured growth goes with N#C/C(=C/N1C(=O)/C(=C/c2ccc([N+](=O)[O-])cc2)SC1=S)c1nc2ccccc2s1 ?
Response: 97

Query: Would you kindly repeat that for O=S(=O)(c1cc(Cl)ccc1O)c1cc(Cl)ccc1O ?
Response: 92.1

Query: Would you kindly repeat that for O=C1C=CC(=O)N1c1ccc(N2C(=O)C=CC2=O)cc1 ?
Response: 69.9

Query: Would you kindly repeat that for Cc1cc(C)c(N2C(=O)CC(Sc3ccccc3N)C2=O)c(C)c1 (stereo unspecified) ?
Response: 47.7

Query: Would you kindly repeat that for Cc1cc(Cl)ccc1NC(=O)/C(Cl)=C1/Sc2ccccc2NC1=O ?
Response: 60.8

* * *

Recorded growth values for a group of compounds are listed next.
Tested on: NCI-H23 lung
experimental.protocol: NCI-60 one-dose screen, 48 h (100 = growth as untreated, 0 = no growth, -100 = all killed)
conditions.used: 10 µM
This is part of a sample that, as a whole, favours compounds with a hit. Of some 83,000 tested, about 20% had one in any assay.
A number alone suffices; assume %.

Known growth results, listed for orientation:
O=S(=O)(c1cc(Cl)ccc1O)c1cc(Cl)ccc1O = 84.6
CCC(C)(c1ccc(O)c(C)c1)c1ccc(O)c(C)c1 = 91.9
CN(C)c1ccc(/C=C/c2ccnc3ccccc23)cc1N = 48.8
N#C/C(=C/N1C(=O)/C(=C/c2ccc([N+](=O)[O-])cc2)SC1=S)c1nc2ccccc2s1 = 89.1

Query: What measured growth goes with COc1ccc(N)c2c1C(=O)c1ccccc1C2=O ?
Response: 99.6

Query: Would you kindly repeat that for NCc1c(O)ccc2ccccc12 ?
Response: 102

Query: Would you kindly repeat that for CN(CC(=O)O)c1ccc(/C=C/c2ccnc3ccccc23)cc1 ?
Response: 99

Query: Would you kindly repeat that for Cc1cc(C)c(N2C(=O)CC(Sc3ccccc3N)C2=O)c(C)c1 (configuration not stated) ?
Response: 82.6

Query: Would you kindly repeat that for COc1ccc2oc(-c3ccc(Cl)cc3)c(N3CCN(C)CC3)c2c1 ?
Response: 73.6

Query: Would you kindly repeat that for ClCCn1c(CCl)nc2ccc(Cl)cc21 ?
Response: -17.1

Query: Would you kindly repeat that for Cn1ncc2cc3c(Nc4ccc(Cl)cc4)cccc3nc21 ?
Response: 85.6

Query: Would you kindly repeat that for COc1cccc(C(c2cc3c(cc2O)OCO3)N2CCOCC2)c1OC (configuration not stated) ?
Response: 109

* * *

System: NCI-H23 lung
experimental.protocol: NCI-60 one-dose screen, 48 h (100 = growth as untreated, 0 = no growth, -100 = all killed)
conditions.used: 10 µM
The panel holds about 83,000 compounds, 20% with a hit somewhere; the sample as a whole holds those more often.
# cutoff 90% applies to growth; >= gives Y, < gives N

O=C(O)c1ccccc1.[Ag] = Y
COc1ccc2c(c1)[nH]c1c(/C=C/c3ccccc3)nccc12 = N
O=C(NC(=S)Nc1ccccn1)c1ccccc1 = N

Query: Please check the record Nc1nc(N)c2cc(Sc3ccc4ccccc4c3)ccc2n1 and state if its growth is at or above 90%.
Response: N

Query: Would you kindly repeat that for Cc1c(-c2ccccc2)[nH]c2ccccc12 ?
Response: Y

Query: Would you kindly repeat that for CC1CCC2(C(=O)O)CCC3(C)C(=CCC4C5(C)CC(O)C(O)C(C)(CO)C5C(O)CC43C)C2C1C (stereo unspecified) ?
Response: Y

Query: Would you kindly repeat that for S=C1SCN(CCc2ccccc2)CN1CCc1ccccc1 ?
Response: Y

Query: Would you kindly repeat that for Cc1cc(N=C2C=CC(=[N+](C)C)C=C2)c(N)cc1N ?
Response: N

Query: Would you kindly repeat that for O=C1c2ccccc2CCC1(Br)Br ?
Response: N

* * *

Tested on: SR leukemia
experimental.protocol: NCI-60 one-dose screen, 48 h (100 = growth as untreated, 0 = no growth, -100 = all killed)
conditions.used: 10 µM
Compounds without any hit were thinned out: in the full panel of roughly 83,000, 20% have a hit.
# cutoff 20% applies to growth; >= gives class 1, < gives class 0

Query: Please check the record N#CC(=C1C=CC(=NO)C=C1)c1ccccc1 and state if its growth is at or above 20%.
Response: class 0

Query: Would you kindly repeat that for O=C1c2cccc3cc([N+](=O)[O-])cc(c23)C(=O)N1CCN1CCCC1 ?
Response: class 0

Query: Would you kindly repeat that for O=S(=O)(c1cc(Cl)ccc1O)c1cc(Cl)ccc1O ?
Response: class 1

Query: Would you kindly repeat that for Cc1cc(Cl)ccc1NC(=O)/C(Cl)=C1/Sc2ccccc2NC1=O ?
Response: class 1

Query: Would you kindly repeat that for S=C1SCN(CCc2ccccc2)CN1CCc1ccccc1 ?
Response: class 1

* * *

System: 786-0 renal
experimental.protocol: NCI-60 one-dose screen, 48 h (100 = growth as untreated, 0 = no growth, -100 = all killed)
conditions.used: 10 µM
The panel holds about 83,000 compounds, 20% with a hit somewhere; the sample as a whole holds those more often.
Recorded growth values for a group of compounds are listed next.
A number alone suffices; assume %.

Known growth results, listed for orientation:
Cc1cc(O)c2c(c1O)C(=O)C13C(=C2O)C(=O)C2C(O)C1C1C(O)C3C(=O)C3=C(O)c4c(O)cc(C)c(O)c4C(=O)C321 (configuration not stated) = -33.2
O=c1[nH]cc(/C=N\Nc2ccccc2)c(=O)[nH]1 = 79.6
Cc1cc(C)c(N2C(=O)CC(Sc3ccccc3N)C2=O)c(C)c1 (configuration not stated) = 112

Query: What measured growth goes with COc1ccc2c(c1)[nH]c1c(/C=C/c3ccccc3)nccc12 ?
Response: 62.9

Query: Would you kindly repeat that for CC[C@@]1(OC(=O)CN(C)C)C(=O)OCc2c1cc1n(c2=O)Cc2cc3c(N)cccc3nc2-1 ?
Response: 0.893

Query: Would you kindly repeat that for N#CC(=C1C=CC(=NO)C=C1)c1ccccc1 ?
Response: 6.67

Query: Would you kindly repeat that for CN(CC(=O)O)c1ccc(/C=C/c2ccnc3ccccc23)cc1 ?
Response: 95.8

Query: Would you kindly repeat that for ClCCn1c(CCl)nc2ccc(Cl)cc21 ?
Response: -59.9

Query: Would you kindly repeat that for COc1ccc(C(C#N)=C2C=CC(=NO)C=C2)cc1 ?
Response: 34.9

Query: Would you kindly repeat that for Cc1cc(Cl)ccc1NC(=O)/C(Cl)=C1/Sc2ccccc2NC1=O ?
Response: 92.9

Query: Would you kindly repeat that for O=C(CNS(=O)(=O)Cc1ccccc1)NNc1ccccc1 ?
Response: 76.6

Query: Would you kindly repeat that for Cn1ncc2cc3c(Nc4ccc(Cl)cc4)cccc3nc21 ?
Response: 89.3

Query: Would you kindly repeat that for C=C1N(C)c2ccc(Cl)cc2C1(C)C ?
Response: 75.8

Query: Would you kindly repeat that for CCC(C)(c1ccc(O)c(C)c1)c1ccc(O)c(C)c1 ?
Response: 63.5

Query: Would you kindly repeat that for Nc1nc(N)c2cc(Sc3ccc4ccccc4c3)ccc2n1 ?
Response: 23

Query: Would you kindly repeat that for CCOC(=O)[C@]1(Br)CC[C@@]1(Br)C(=O)OCC ?
Response: 118

Query: Would you kindly repeat that for O=[N+]([O-])c1cc(S(=O)(=O)Nc2ccccc2)ccc1Cl ?
Response: 100

Query: Would you kindly repeat that for O=Nc1ccc(Nc2ccccc2)cc1 ?
Response: 80

Query: Would you kindly repeat that for O=C1c2cccc3cc([N+](=O)[O-])cc(c23)C(=O)N1CCN1CCCC1 ?
Response: -18.8

Query: Would you kindly repeat that for COc1cccc(C(c2cc3c(cc2O)OCO3)N2CCOCC2)c1OC (configuration not stated) ?
Response: 101

Query: Would you kindly repeat that for CCC(=O)Oc1ccc(/C=N/NC(N)=S)nc1 ?
Response: 23.6

* * *

Test system: PC-3 prostate
experimental.protocol: NCI-60 one-dose screen, 48 h
conditions.used: 10 µM
This is part of a sample that, as a whole, favours compounds with a hit. Of some 83,000 tested, about 20% had one in any assay. Calls of active or inactive are those of the source. How the source made its calls: active means growth percent below 10; inactive means the rest.
Form entry, call: pick from yes (1) for active, no (0) for inactive

O=[N+]([O-])c1cc(S(=O)(=O)Nc2ccccc2)ccc1Cl = no (0)
O=C1C(Cl)=C(Cl)C(Cl)(Cl)C(Cl)C1(Cl)Cl (stereo unspecified) = no (0)
Nc1nc(N)c2cc(Sc3ccc4ccccc4c3)ccc2n1 = no (0)

Query: Kindly provide the recorded test outcome for the following molecule: Cc1cc(Cl)ccc1NC(=O)/C(Cl)=C1/Sc2ccccc2NC1=O
Response: no (0)

Query: Would you kindly repeat that for O=S(=O)(c1cc(Cl)ccc1O)c1cc(Cl)ccc1O ?
Response: no (0)

Query: Would you kindly repeat that for N#C/C(=C/N1C(=O)/C(=C/c2ccc([N+](=O)[O-])cc2)SC1=S)c1nc2ccccc2s1 ?
Response: no (0)
